system: complex C (poly(U)-programmed ribosomes from E. coli bearing Ac[3H]Phe-tRNA at the P-site), peptidyl transferase; assay: Inhibition of AcPhe-puromycin synthesis (puromycin reaction, peptide bond formation); type: biochemical; conditions: overall two-step inhibition of the puromycin reaction
resultType: potency relative to CAM, based on Kik7/(k6 + k7)

mol=NCCCCNC(=O)CCC(=O)N[C@H](CO)[C@H](O)c1ccc([N+](=O)[O-])cc1 recordedvalue=equal
mol=O=C(CCC(=O)N[C@H](CO)[C@H](O)c1ccc([N+](=O)[O-])cc1)NCCCNCCCCN(Cc1ccccc1)Cc1ccccc1 recordedvalue="1.5 fold"
mol=O=C(N[C@H](CO)[C@H](O)c1ccc([N+](=O)[O-])cc1)c1nc[nH]n1 recordedvalue=equal

====

tested on: complex C (poly(U)-programmed ribosomes from E. coli bearing Ac[3H]Phe-tRNA at the P-site), peptidyl transferase; test: Inhibition of AcPhe-puromycin synthesis (puromycin reaction, peptide bond formation); type: biochemical; settings: late phase of the reaction (complex C*I); 25°C, buffer A
pKi reference
Would you please state pKi, meaning minus log10 of the concentration in mol/L, as a bare number?

mol=O=C(N[C@H](CO)[C@H](O)c1ccc([N+](=O)[O-])cc1)c1nc[nH]n1 recordedvalue=6.00
mol=NCCCCN(CCCN)C(=O)CCC(=O)N[C@H](CO)[C@H](O)c1ccc([N+](=O)[O-])cc1 recordedvalue=5.92
mol=NCCCN(CCCCN(Cc1ccccc1)Cc1ccccc1)C(=O)CCC(=O)N[C@H](CO)[C@H](O)c1ccc([N+](=O)[O-])cc1 recordedvalue=6.55

With those in mind, consider the next compound.
// sample NCCCCNC(=O)c1ccccc1C(=O)N[C@H](CO)[C@H](O)c1ccc([N+](=O)[O-])cc1 , its pKi was 5.07

====

IC50 reference
Test system: wild-type E. coli
Assay: Growth inhibition of bacterial cell cultures
Type: cell-based
Details: Escherichia coli; WT-E. coli; LB medium, 37°C; read-out: IC50 (inhibit the growth by half)
Description: S. aureus or E. coli cells (400 μl of a 0.700 OD560 preculture) containing wild-type or mutant ribosomes were added in 3.6 ml of LB (Luria Broth) medium and grown at 37°C in the presence or absence of CAM or PA–CAM conjugates until the optical density of the control culture (grown in the absence of drug) reached the value 0.700 at 560 nm. From the growth curves, the IC50 value for each strain was estimated as the concentration of the drug that is required to inhibit the growth by half.
In your response, put the unit directly after the numeric value.

compound="O=C(CCC(=O)N[C@H](CO)[C@H](O)c1ccc([N+](=O)[O-])cc1)NCCCNCCCCN(Cc1ccccc1)Cc1ccccc1 [Compound 5]" targetsystem="wild-type E. coli" resulttype=IC50 recordedvalue="35.5 µM"

With those in mind, consider the next compound.
Tested system wild-type E. coli; IC50 recorded for O=C(N[C@H](CO)[C@H](O)c1ccc([N+](=O)[O-])cc1)C(Cl)Cl [CAM, Chloramphenicol] was 6.2 µM

====

IC50 reference
system: wild-type S. aureus; test: Growth inhibition of bacterial cell cultures; assay type: cell-based; conditions: Staphylococcus aureus, read-out: IC50 (inhibit the growth by half)

mol=O=C(CCC(=O)N[C@H](CO)[C@H](O)c1ccc([N+](=O)[O-])cc1)NCCCNCCCCN(Cc1ccccc1)Cc1ccccc1 recordedvalue="13.7 µM"
mol=NCCCCNC(=O)CCC(=O)N[C@H](CO)[C@H](O)c1ccc([N+](=O)[O-])cc1 recordedvalue="> 200 µM"
mol=NCCCCNC(=O)c1ccccc1C(=O)N[C@H](CO)[C@H](O)c1ccc([N+](=O)[O-])cc1 recordedvalue="> 200 µM"

// sample O=C(N[C@H](CO)[C@H](O)c1ccc([N+](=O)[O-])cc1)c1nc[nH]n1 , its IC50 was > 100 µM

====

test system: complex C (poly(U)-programmed ribosomes from E. coli bearing Ac[3H]Phe-tRNA at the P-site), peptidyl transferase; assay: Inhibition of AcPhe-puromycin synthesis (puromycin reaction, peptide bond formation); format: biochemical; settings: overall two-step inhibition of the puromycin reaction
resultType: potency relative to CAM, based on Kik7/(k6 + k7)

mol=O=C(CCNC(=O)c1nc[nH]n1)N[C@H](CO)[C@H](O)c1ccc([N+](=O)[O-])cc1 recordedvalue="lower potency"
mol=NCCCN(CCCCN(Cc1ccccc1)Cc1ccccc1)C(=O)CCC(=O)N[C@H](CO)[C@H](O)c1ccc([N+](=O)[O-])cc1 recordedvalue="3 fold"
mol=NCCCCNC(=O)c1ccccc1C(=O)N[C@H](CO)[C@H](O)c1ccc([N+](=O)[O-])cc1 recordedvalue="lower potency"
mol=NCCCNCCCCNCCCNC(=O)CCC(=O)N[C@H](CO)[C@H](O)c1ccc([N+](=O)[O-])cc1 recordedvalue=equal

====

test system: wild-type S. aureus; assay: Growth inhibition of bacterial cell cultures; type: cell-based; details: Staphylococcus aureus, read-out: IC50 (inhibit the growth by half)
IC50 reference
Record the value in µM, omitting the unit from your answer.

Completed entries (count: 3):
compound="NCCCNCCCCNCCCNC(=O)CCC(=O)N[C@H](CO)[C@H](O)c1ccc([N+](=O)[O-])cc1 [Compound 2]" targetsystem="wild-type S. aureus" resulttype=IC50 unittext=µM recordedvalue=45.3
compound="NCCCCN(CCCN)C(=O)CCC(=O)N[C@H](CO)[C@H](O)c1ccc([N+](=O)[O-])cc1 [Compound 3]" targetsystem="wild-type S. aureus" resulttype=IC50 unittext=µM recordedvalue=12.7
compound="O=C(CCNC(=O)c1nc[nH]n1)N[C@H](CO)[C@H](O)c1ccc([N+](=O)[O-])cc1 [Compound 9]" targetsystem="wild-type S. aureus" resulttype=IC50 unittext=µM recordedvalue=66

With those in mind, consider the next compound.
// sample NCCCN(CCCCN(Cc1ccccc1)Cc1ccccc1)C(=O)CCC(=O)N[C@H](CO)[C@H](O)c1ccc([N+](=O)[O-])cc1 [Compound 4] , its IC50 was 4.7

====

IC50/IC50(puro) reference
Test system: wild-type E. coli
Assay: Growth inhibition of bacterial cell cultures
Format: cell-based
Conditions: wild-type E. coli; IC50(puro) = concentration causing 50% inhibition in peptide-bond formation at 2 mM puromycin
Method: S. aureus or E. coli cells (400 μl of a 0.700 OD560 preculture) containing wild-type or mutant ribosomes were added in 3.6 ml of LB (Luria Broth) medium and grown at 37°C in the presence or absence of CAM or PA–CAM conjugates until the optical density of the control culture (grown in the absence of drug) reached the value 0.700 at 560 nm. From the growth curves, the IC50 value for each strain was estimated as the concentration of the drug that is required to inhibit the growth by half.

Completed entries (count: 6):
compound="NCCCCNC(=O)CCC(=O)N[C@H](CO)[C@H](O)c1ccc([N+](=O)[O-])cc1 [Compound 1]" recordedvalue=>37.0
compound="O=C(CCC(=O)N[C@H](CO)[C@H](O)c1ccc([N+](=O)[O-])cc1)NCCCNCCCCN(Cc1ccccc1)Cc1ccccc1 [Compound 5]" recordedvalue="9.86 ± 1.29"
compound="O=C(CCNC(=O)c1nc[nH]n1)N[C@H](CO)[C@H](O)c1ccc([N+](=O)[O-])cc1 [Compound 9]" recordedvalue=>8.3
compound="NCCCCN(CCCN)C(=O)CCC(=O)N[C@H](CO)[C@H](O)c1ccc([N+](=O)[O-])cc1 [Compound 3]" recordedvalue=>20.8
compound="O=C(N[C@H](CO)[C@H](O)c1ccc([N+](=O)[O-])cc1)c1nc[nH]n1 [Compound 8]" recordedvalue=>50
compound="NCCCNCCCCNCCCNC(=O)CCC(=O)N[C@H](CO)[C@H](O)c1ccc([N+](=O)[O-])cc1 [Compound 2]" recordedvalue=>22.2

// sample O=C(N[C@H](CO)[C@H](O)c1ccc([N+](=O)[O-])cc1)C(Cl)Cl [CAM, Chloramphenicol] , its IC50/IC50(puro) was 1.17 ± 0.13

// sample NCCCN(CCCCN(Cc1ccccc1)Cc1ccccc1)C(=O)CCC(=O)N[C@H](CO)[C@H](O)c1ccc([N+](=O)[O-])cc1 [Compound 4] , its IC50/IC50(puro) was 5.60 ± 0.76

====

system: complex C (poly(U)-programmed ribosomes from E. coli bearing Ac[3H]Phe-tRNA at the P-site), peptidyl transferase; assay: Inhibition of AcPhe-puromycin synthesis (puromycin reaction, peptide bond formation); assay type: biochemical; settings: late phase of the reaction (complex C*I); 25°C, buffer A
Ki reference
Record the value in nM, omitting the unit from your answer.

Completed entries (count: 3):
mol=O=C(CCNC(=O)c1nc[nH]n1)N[C@H](CO)[C@H](O)c1ccc([N+](=O)[O-])cc1 recordedvalue=4000
mol=NCCCCNC(=O)CCC(=O)N[C@H](CO)[C@H](O)c1ccc([N+](=O)[O-])cc1 recordedvalue=900
mol=O=C(CCC(=O)N[C@H](CO)[C@H](O)c1ccc([N+](=O)[O-])cc1)NCCCNCCCCN(Cc1ccccc1)Cc1ccccc1 recordedvalue=600

With those in mind, consider the next molecule.
// sample NCCCNCCCCNCCCNC(=O)CCC(=O)N[C@H](CO)[C@H](O)c1ccc([N+](=O)[O-])cc1 , its Ki was 750
